target: full-length beta-Catenin (Uniprot ID P35222) (Homo sapiens (Human)) (UniProt P35222); test: fluorescence polarization competition; 10 nM full-length beta-catenin, competitor 10 nM 5FAM-TCF4(10-53)
Sequence (P35222 whole entry): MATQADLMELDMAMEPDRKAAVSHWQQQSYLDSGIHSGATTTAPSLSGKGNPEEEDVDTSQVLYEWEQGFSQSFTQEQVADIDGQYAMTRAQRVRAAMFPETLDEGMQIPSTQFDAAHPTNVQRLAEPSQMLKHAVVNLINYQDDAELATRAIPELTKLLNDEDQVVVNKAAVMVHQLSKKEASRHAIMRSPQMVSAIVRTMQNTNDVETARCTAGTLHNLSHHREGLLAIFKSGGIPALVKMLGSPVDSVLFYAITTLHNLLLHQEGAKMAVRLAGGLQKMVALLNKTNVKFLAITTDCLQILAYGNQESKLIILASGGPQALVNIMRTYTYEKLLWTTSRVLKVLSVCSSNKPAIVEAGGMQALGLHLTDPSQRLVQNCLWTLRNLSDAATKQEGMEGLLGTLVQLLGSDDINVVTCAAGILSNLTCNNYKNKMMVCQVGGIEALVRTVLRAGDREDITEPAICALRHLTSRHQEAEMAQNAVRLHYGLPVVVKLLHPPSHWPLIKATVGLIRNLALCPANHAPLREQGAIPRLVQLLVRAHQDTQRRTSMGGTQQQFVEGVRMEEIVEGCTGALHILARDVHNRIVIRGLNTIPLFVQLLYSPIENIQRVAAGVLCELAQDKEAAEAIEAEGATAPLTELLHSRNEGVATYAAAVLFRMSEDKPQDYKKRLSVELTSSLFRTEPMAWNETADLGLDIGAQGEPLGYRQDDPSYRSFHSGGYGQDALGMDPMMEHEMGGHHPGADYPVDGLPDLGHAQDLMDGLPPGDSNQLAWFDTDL
Starred links: 1 amine or outer side, 2 acyl side, 3 side chain; linkers in the order of their positions; H or OH if unused. Positions of bridges follow the written chain, without caps; N, C: chain ends. Non-standard residues stand in square brackets, D forms with d. Primed or numbered codes have the meaning given here. B5(4) = 2,2-bis(4-pentenyl)glycine = 2-amino-2-(pent-4-en-1-yl)hept-6-enoic acid (stitching residue), C=CCCCC(CCCC=C)(N[*:1])C(=O)[*:2]; B5 = 2-amino-2-(pent-4-en-1-yl)hept-6-enoic acid, C=CCCCC(CCCC=C)(N[*:1])C(=O)[*:2]; Phe(3-Me) = Cc1cccc(C[C@H](N)C(=O)O)c1; Ala(cPent) = N[C@@H](CC1CCCC1)C(=O)O; Phe(2-Me) = Cc1ccccc1C[C@H](N)C(=O)O; Bta = N[C@@H](Cc1csc2ccccc12)C(=O)O; αAllylPro = C=CC[C@@]1(C(=O)O)CCCN1; 2Pal = N[C@@H](Cc1ccccn1)C(=O)O; S8 = C=CCCCCCC[C@](C)(N)C(=O)O

>  <BINDER>
Ac-[αAllylPro]DA[B5]DEAAFV[S8][Ala(cPent)][Bta]Q-NH2 (staple 1-4, 4-11) [I-393]

>  <EC50 (nM)>
1950

$$$$
>  <BINDER>
Ac-[αAllylPro]DA[B5(4)]DDAAFA[S8][Phe(2-Me)][Bta]Q-NH2 (staple 1-4, 4-11) [I-367]

>  <EC50 (nM)>
177

$$$$
>  <BINDER>
Ac-[αAllylPro]DA[B5(4)]DDAA[Phe(2-Me)]A[S8]F[Bta]Q-NH2 (staple 1-4, 4-11; also: earlier-eluting staple isomer) [I-365]

>  <EC50 (nM)>
2720

$$$$
>  <BINDER>
Ac-[αAllylPro]DA[B5(4)]DEAAFV[S8][Phe(3-Me)][Bta]Q-NH2 (staple 1-4, 4-11) [I-395]

>  <EC50 (nM)>
5000

$$$$
>  <BINDER>
Ac-[αAllylPro]DA[B5]DEAA[2Pal]V[S8]F[Bta]Q-NH2 (staple 1-4, 4-11; not fully specified; printed as Ac-PL3-Asp-Ala-B5-Asp-Glu-Ala-Ala-2pyrA-Val-S8-Phe-BztA-Gln-NH2) [I-387]

>  <EC50 (nM)>
2620

$$$$
